Target: cAMP-dependent protein kinase (PKA) (Homo sapiens, UniProt P22694+P17612+P22612)
Experiment: Inhibition of protein kinase A.
Format: protein assay, unidentified
measure: IC50

Enquiry: Consider the compound CC(=O)Nc1ccc(C)c(Nc2nccc(-c3cccnc3)n2)c1 and give its measured IC50.
Return: > 500 µM

* * *

Target: Protein kinase C delta type (Homo sapiens)
Sequence (Q05655 whole entry): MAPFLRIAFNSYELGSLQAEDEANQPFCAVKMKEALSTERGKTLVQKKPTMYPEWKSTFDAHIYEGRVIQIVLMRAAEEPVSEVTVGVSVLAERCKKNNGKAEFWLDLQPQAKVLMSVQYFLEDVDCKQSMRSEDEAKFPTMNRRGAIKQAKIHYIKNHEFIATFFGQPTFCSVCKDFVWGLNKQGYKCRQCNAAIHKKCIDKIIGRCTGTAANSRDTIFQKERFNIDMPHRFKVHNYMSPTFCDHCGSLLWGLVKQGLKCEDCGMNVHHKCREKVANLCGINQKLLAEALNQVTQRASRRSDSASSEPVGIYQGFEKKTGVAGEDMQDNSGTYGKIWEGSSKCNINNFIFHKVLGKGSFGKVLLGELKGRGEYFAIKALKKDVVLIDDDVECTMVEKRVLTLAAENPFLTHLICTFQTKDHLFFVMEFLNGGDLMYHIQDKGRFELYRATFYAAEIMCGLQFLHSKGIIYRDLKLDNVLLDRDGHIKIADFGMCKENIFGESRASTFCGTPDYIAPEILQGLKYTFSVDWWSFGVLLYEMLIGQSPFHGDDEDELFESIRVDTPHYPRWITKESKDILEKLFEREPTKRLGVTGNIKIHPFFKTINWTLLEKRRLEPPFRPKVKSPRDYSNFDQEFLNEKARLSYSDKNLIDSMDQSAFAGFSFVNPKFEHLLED
Test: Inhibition of protein kinase C delta.
measure: pIC50
Please express pIC50 as -log10 of the molar concentration.

{"compoundStructure": "O=C(Nc1cccc(Nc2nccc(-c3cccnc3)n2)c1)c1cccnc1", "pIC50": 4.77}

Query compound follows.
Enquiry: Given the entry FC(F)C(F)(F)Oc1cccc(Nc2nccc(-c3c[nH]c4ccccc34)n2)c1 , what pIC50 was observed with Protein kinase C delta type (Homo sapiens)?
Return: 5.85

Hello, the source for this data is ChEMBL document CHEMBL1130562, in case you need it.
